System: Plasmodium falciparum K1 strain
procedure-summary: Inhibition of intra-erythrocytic P. falciparum growth in culture (SYBR Green I-based assay)
Assay type: cell-based
particulars: Plasmodium falciparum, K1 strain (chloroquine- and pyrimethamine-resistant), in vitro growth, triplicate
Protocol: Plasmodium falciparum strain K1, a chloroquine- and pyrimethamine-resistant strain from Thailand [28] was cultivated in RPMI 1640 medium (Invitrogen™, CA, USA) supplemented with 10 % human serum and human red blood cell (RBC) at 37 °C under an atmosphere of 5 % CO2. Plasmodium falciparum cultures containing mostly trophozoite and schizont stages were harvested when parasitaemia was >10 % by centrifugation at 500×g for 10 min at 25 °C. […]
readout: pIC50
Answers are plain numbers, as −log10 of the molar value.

# compound, pIC50
rows = [
    ("O=c1[nH]c(NCc2ccc(Cl)c(Cl)c2)nc2nc[nH]c12 [DCBG, N^2-(3,4-dichlorobenzyl)guanine]", 5.06),
    ("Nc1nc(Cl)cc(Nc2cc(Cl)cc(Cl)c2)n1", 4.46),
]

Now turn to the next compound.
Req: Query pIC50 for Nc1nc(Cl)cc(Nc2ccc(Cl)c(Cl)c2)n1
Resp: 5.42

---

Exercise: for every item that follows, state its recorded IC50.
measured-target: PfPolδ-cat (Plasmodium falciparum, UniProt P30315)
Construct: The 3285-bp full-length PfPolδ-cat of P. falciparum K1 strain was successfully amplified and cloned; thioredoxin (N); His6 (C); made in house; host or cells: Escherichia coli LMG194
Sequence (P30315 whole entry): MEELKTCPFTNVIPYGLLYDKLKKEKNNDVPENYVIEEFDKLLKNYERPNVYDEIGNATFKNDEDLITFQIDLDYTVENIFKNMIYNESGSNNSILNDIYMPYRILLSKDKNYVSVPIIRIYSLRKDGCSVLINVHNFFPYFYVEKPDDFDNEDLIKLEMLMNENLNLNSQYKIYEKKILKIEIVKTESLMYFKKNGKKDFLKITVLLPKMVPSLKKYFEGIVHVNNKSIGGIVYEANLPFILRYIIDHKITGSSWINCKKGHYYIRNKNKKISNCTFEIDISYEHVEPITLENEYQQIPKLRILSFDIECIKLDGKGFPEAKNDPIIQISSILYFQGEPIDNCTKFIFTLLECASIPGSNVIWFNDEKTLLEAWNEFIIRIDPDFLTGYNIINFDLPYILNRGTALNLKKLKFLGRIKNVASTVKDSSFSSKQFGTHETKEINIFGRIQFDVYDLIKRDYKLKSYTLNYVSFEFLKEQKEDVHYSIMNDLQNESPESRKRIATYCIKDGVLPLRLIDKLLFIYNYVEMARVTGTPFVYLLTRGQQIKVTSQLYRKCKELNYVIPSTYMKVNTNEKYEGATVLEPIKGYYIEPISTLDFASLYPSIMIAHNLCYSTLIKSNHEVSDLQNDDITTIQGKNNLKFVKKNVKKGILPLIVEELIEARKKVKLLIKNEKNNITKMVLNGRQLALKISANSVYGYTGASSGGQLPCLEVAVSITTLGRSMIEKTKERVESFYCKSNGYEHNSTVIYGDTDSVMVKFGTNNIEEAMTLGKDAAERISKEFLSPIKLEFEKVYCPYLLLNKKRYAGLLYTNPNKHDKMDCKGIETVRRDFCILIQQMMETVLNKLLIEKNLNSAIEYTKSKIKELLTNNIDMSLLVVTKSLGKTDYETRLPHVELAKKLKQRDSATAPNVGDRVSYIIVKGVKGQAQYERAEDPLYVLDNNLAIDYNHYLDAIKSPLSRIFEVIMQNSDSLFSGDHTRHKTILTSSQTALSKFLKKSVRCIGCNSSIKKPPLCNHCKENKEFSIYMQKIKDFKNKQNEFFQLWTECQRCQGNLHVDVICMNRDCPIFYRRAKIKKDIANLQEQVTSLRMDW
procedure-summary: DNA polymerase assay, inhibitory effects of compounds on PfPolδ-cat activity
Format: biochemical
particulars: recombinant PfPolδ-cat DNA polymerase activity, activated CT-DNA, 1 h at 37 °C, triplicate; read-out: IC50 PfPolδ-cat
Give bare numbers, in µM.

Solved cases (3 shown):
# compound-structure, endpoint-unit, IC50
measured = [
    ("CCCCc1ccc(Nc2nc3c(ncn3[C@H]3C[C@H](O)[C@@H](COP(=O)(O)OP(=O)(O)OP(=O)(O)O)O3)c(=O)[nH]2)cc1", "µM", 38),
    ("Nc1nc(Cl)cc(Nc2ccc(Cl)c(Cl)c2)n1", "µM", 104),
    ("CC(=O)OCCCCCn1cnc2nc(NCc3ccc(Cl)c(Cl)c3)[nH]c(=O)c21", "µM", 55),
]

Shifting focus to the molecule that follows.
Req: Tell me measured IC50 for Nc1nc(Cl)cc(Nc2cc(Cl)cc(Cl)c2)n1 please.
Resp: 185

---

Tested on: Plasmodium falciparum K1 strain
procedure-summary: Inhibition of intra-erythrocytic P. falciparum growth in culture (SYBR Green I-based assay)
Format: cell-based
particulars: K1 strain (chloroquine- and pyrimethamine-resistant), in vitro growth, triplicate
readout: IC50 (µM)
Numbers only, in µM.

# molecule, IC50 [µM]
records = [
    ("CCCCc1ccc(Nc2nc3c(ncn3C3CC(O)C(COP(=O)(O)OP(=O)(O)C(=O)P(=O)(O)O)O3)c(=O)[nH]2)cc1 (centres unmarked)", 173),
]

Would you kindly look at the next entry?
Req: Please look at this molecule and report its IC50: CC(=O)OCCCCCn1cnc2nc(NCc3ccc(Cl)c(Cl)c3)[nH]c(=O)c21
Resp: 4.1

---

Tested on: Plasmodium falciparum K1 strain
procedure-summary: Inhibition of intra-erythrocytic P. falciparum growth in culture (SYBR Green I-based assay)
Format: cell-based
particulars: Plasmodium falciparum, K1 strain (chloroquine- and pyrimethamine-resistant), in vitro growth, triplicate
readout: IC50
Please format your answer as a value with the unit trailing.

Below, each entry is followed by its recorded IC50 result.
# compound, IC50
rows = [
    ("Nc1nc2c(ncn2COCCOP(=O)(O)OP(=O)(O)OP(=O)(O)O)c(=O)[nH]1 [Acyclovir triphosphate]", "347 µM"),
    ("CCCCc1ccc(Nc2nc3c(ncn3[C@H]3C[C@H](O)[C@@H](COP(=O)(O)OP(=O)(O)OP(=O)(O)O)O3)c(=O)[nH]2)cc1 [BuPdGTP]", "85.6 µM"),
    ("O=c1[nH]c(NCc2ccc(Cl)c(F)c2)nc2nc[nH]c12 [N^2-(3-fluoro,4-chlorobenzyl)guanine]", "7.4 µM"),
]

Req: Report measured IC50; entry is CCCCCCNc1nc2c(ncn2[C@H]2C[C@H](O)[C@@H](COP(=O)(O)OP(=O)(O)OP(=O)(O)O)O2)c(=O)[nH]1 [HexdGTP]
Resp: 86.4 µM

---

measured-target: PfPolδ-cat (Plasmodium falciparum, UniProt P30315)
Construct: The 3285-bp full-length PfPolδ-cat of P. falciparum K1 strain was successfully amplified and cloned; thioredoxin (N); His6 (C); made in house; host or cells: Escherichia coli LMG194
procedure-summary: DNA polymerase assay, inhibitory effects of compounds on PfPolδ-cat activity
Format: biochemical
readout: pIC50
Numbers only, as −log10 of the molar value.

Req: Read off the recorded pIC50 for C[C@@]1(CO)[C@H](O)CC[C@@]2(C)[C@H]1CC[C@H]1C[C@@H]3C[C@@]12CC[C@]3(O)CO [aphidicolin, reference compound]
Resp: 4.93

Cited source: paper PMC4766629
